target: human Glucagon receptor (GCGR) (human, UniProt P47871); assay: cell-based or functional assay
*1 amine or outer side, *2 acyl side, *3 side chain or, on linkers, in order; H or OH if unused. Bridges are numbered along the chain shown (N, C = ends). Where no end group is shown, it is not given here. Side-chain parts run from the residue outwards. [ ]: non-standard residue; d: D form. γGlu = O=C(O)[C@H](CCC(=O)[*:2])N[*:1]; Met(O2) = CS(=O)(=O)CC[C@H](N)C(=O)O; Nle = CCCC[C@H](N)C(=O)O; Aib = CC(C)(N)C(=O)O
Values of GCGR EC50 human (nM), cAMP activity assay greater than or equal to 0.05 nM map to rule met; values below map to rule not met.

Take a look at these entries with their results.
{"BINDER": "H[Aib]QGTFTSDKSKYLD[Aib]KAAQEFVQWL[Nle]DT-NH2 (lactam 17-21; not fully specified (residue 10); printed as HUQGTFTSDK(γEγEC16)SKYLDUK*AAQE*FVQWL-Nle-DT-NH2) [TP840]", "CATEGORY LABEL": "rule met"}
{"BINDER": "HXQGTFTSDXSKYLDERAAEDFVKWLLDT (s = D-Serine at 2; K10 conjugated to γEγE-C16 fatty acid; E*20 and K*24 cyclized to form a lactam containing ring; C-terminal amide) [TP484]", "CATEGORY LABEL": "rule not met"}
{"BINDER": "H[dS]QGTFTSEK([γGlu-γGlu-C16 fatty acid])SKKLD[Aib]RAAQDFVQWLLATK(γGlu)-NH2 (lactam 9-13) [TP115]", "CATEGORY LABEL": "rule met"}
{"BINDER": "H[Aib]QGTFTSDKSKYLD[Aib]RAAKDFVEWL[Met(O2)]DTK(γGlu)-NH2 (lactam 20-24; not fully specified (residue 10); printed as HUQGTFTSDK(γEγEC16)SKYLDURAAK*DFVE*WL2DTKγE-NH2) [TP846]", "CATEGORY LABEL": "rule met"}
{"BINDER": "H[Aib]QGTFTSDKSKYLD[Aib]RAAQDFVKWL[Met(O2)]ETK(γGlu)-NH2 (lactam 24-28; not fully specified (residue 10); printed as HUQGTFTSDK(γEγEC16)SKYLDURAAQDFVK*WL2E*TKγE-NH2) [TP850]", "CATEGORY LABEL": "rule not met"}

Request: Hello, I need to know if H[dS]QGTFTSDKSKYLDARAAQDFVKWLLET-NH2 (lactam 24-28; not fully specified (residue 10); printed as HsQGTFTSDK(γEγEC16)SKYLDARAAQDFVK*WLLE*T-NH2) [TP834] has measured GCGR EC50 human (nM), cAMP activity assay not below 0.05 nM. Thanks!
Response: rule met

Request: Hello, I need to know if H[Aib]QGTFTSDKSKYLD[Aib]RAAQDFVEWLMKTK(γGlu)-NH2 (lactam 24-28; not fully specified (residue 10); printed as HUQGTFTSDK(γEγEC16)SKYLDURAAQDFVE*WLMK*TKγE-NH2) [TP486] has measured GCGR EC50 human (nM), cAMP activity assay not below 0.05 nM. Thanks!
Response: rule met
